Target: Carbonic anhydrase 9 (Homo sapiens, UniProt Q16790)
Assay: Inhibition of recombinant human CA-IX incubated for 15 mins by phenol red dye based stopped-flow CO2 hydration assay
Readout: log10(Ki) (log10 of the value in nM)
Record value = log10 of Ki given in nM.

Solved entries:
{"columns": ["Compound", "Reported Value"],
 "data": [
  ["CC(C)c1ccc(C2C=C(Nc3cccc(S(N)(=O)=O)c3)C(=O)N2c2cccc(S(N)(=O)=O)c2)cc1 (stereo not given)", 2.79],
  ["COc1ccc(C2C=C(Nc3cccc(S(N)(=O)=O)c3)C(=O)N2c2cccc(S(N)(=O)=O)c2)cc1O (stereo not given)", 1.98],
  ["NS(=O)(=O)c1cccc(NC2=CC(c3ccc(F)cc3)N(c3cccc(S(N)(=O)=O)c3)C2=O)c1 (stereo not given)", 1.70],
  ["CCCCc1ccc(C2C=C(Nc3cccc(S(N)(=O)=O)c3)C(=O)N2c2cccc(S(N)(=O)=O)c2)cc1 (stereo not given)", 2.75],
  ["COc1cc(C2C=C(Nc3cccc(S(N)(=O)=O)c3)C(=O)N2c2cccc(S(N)(=O)=O)c2)ccc1O (stereo not given)", 2.57]
]}

Notebook entry, Carbonic anhydrase 9 (Homo sapiens, UniProt Q16790) assay: log10(Ki) of COc1ccc(C2C=C(Nc3cccc(S(N)(=O)=O)c3)C(=O)N2c2cccc(S(N)(=O)=O)c2)cc1OC (stereo not given) = ? 1.94

Notebook: pull reported log10(Ki) for Carbonic anhydrase 9 (Homo sapiens, UniProt Q16790), entry NS(=O)(=O)c1cccc(NC2=CC(c3ccco3)N(c3cccc(S(N)(=O)=O)c3)C2=O)c1 (stereo not given) 1.90

Lab note: need log10(Ki) with Carbonic anhydrase 9 (Homo sapiens, UniProt Q16790) for entry NS(=O)(=O)c1cccc(NC2=CC(c3ccccc3O)N(c3cccc(S(N)(=O)=O)c3)C2=O)c1 (stereo not given) , please look it up. 2.54

What is its log10(Ki) for Carbonic anhydrase 9 (Homo sapiens, UniProt Q16790)? Entry: COc1ccccc1C1C=C(Nc2cccc(S(N)(=O)=O)c2)C(=O)N1c1cccc(S(N)(=O)=O)c1 (stereo not given) 1.97

Fill in the recorded log10(Ki) for this compound, with Carbonic anhydrase 9 (Homo sapiens, UniProt Q16790) as test system: NS(=O)(=O)c1cccc(NC2=CC(c3ccc(Br)cc3)N(c3cccc(S(N)(=O)=O)c3)C2=O)c1 (stereo not given) 2.59
